Documented Biochem EGFR % Inhibition (P.167) across a set of compounds
Target: EGFR (Homo sapiens)
Construct: endogenous in cells; host or cells: A431 cells (lysate, captured with SUMO1 anti-EGFR antibody)
Sequence (P00533 25-1210): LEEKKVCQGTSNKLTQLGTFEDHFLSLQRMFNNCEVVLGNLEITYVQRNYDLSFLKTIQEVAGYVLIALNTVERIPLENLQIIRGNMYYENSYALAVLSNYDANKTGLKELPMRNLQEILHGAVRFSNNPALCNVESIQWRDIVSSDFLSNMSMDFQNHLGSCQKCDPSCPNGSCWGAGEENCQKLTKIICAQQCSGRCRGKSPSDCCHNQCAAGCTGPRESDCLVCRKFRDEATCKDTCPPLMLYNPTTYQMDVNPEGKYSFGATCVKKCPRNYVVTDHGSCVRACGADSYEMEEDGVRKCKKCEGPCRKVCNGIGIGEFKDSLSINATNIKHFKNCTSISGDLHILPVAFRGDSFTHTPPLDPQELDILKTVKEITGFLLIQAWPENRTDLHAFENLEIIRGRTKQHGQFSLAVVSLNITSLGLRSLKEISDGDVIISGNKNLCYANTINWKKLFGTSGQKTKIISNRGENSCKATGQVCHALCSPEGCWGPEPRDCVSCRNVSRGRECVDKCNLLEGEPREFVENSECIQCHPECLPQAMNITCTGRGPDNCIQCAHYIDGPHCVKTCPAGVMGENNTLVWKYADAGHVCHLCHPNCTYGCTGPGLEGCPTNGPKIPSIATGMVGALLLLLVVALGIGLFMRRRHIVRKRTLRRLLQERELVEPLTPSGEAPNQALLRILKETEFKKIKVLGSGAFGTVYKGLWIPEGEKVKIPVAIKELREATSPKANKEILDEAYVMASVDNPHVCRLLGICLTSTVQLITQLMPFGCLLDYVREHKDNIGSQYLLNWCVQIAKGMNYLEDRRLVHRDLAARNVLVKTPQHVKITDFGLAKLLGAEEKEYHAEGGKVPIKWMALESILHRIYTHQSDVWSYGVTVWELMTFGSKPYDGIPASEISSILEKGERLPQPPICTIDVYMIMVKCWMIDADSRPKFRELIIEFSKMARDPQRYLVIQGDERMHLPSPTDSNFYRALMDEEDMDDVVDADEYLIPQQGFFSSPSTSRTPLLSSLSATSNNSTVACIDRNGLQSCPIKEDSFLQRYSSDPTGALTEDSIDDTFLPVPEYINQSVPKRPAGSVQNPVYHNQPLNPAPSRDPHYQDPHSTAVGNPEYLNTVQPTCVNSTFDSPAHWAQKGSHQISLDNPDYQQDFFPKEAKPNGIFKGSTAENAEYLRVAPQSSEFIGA
Assay: Biochemical EGFR Assay
Design: concentration or dose not given beside the values
# output: bare number, implied unit %

Consider the reported Biochem EGFR % Inhibition (P.167) for these compounds:
[[record]]
entry_smiles = "O=C1Nc2ccc(S(=O)(=O)Nc3ccc(C(F)(F)F)cc3)cc2C1=Cc1ccccc1C(F)(F)F"
readout_type = "Biochem EGFR % Inhibition (P.167)"
unit_abbreviation = "%"
value_measured = 90.2

[[record]]
entry_smiles = "Cc1c(Br)cc(Br)c2c1C(=Cc1ccc(C(=O)O)cc1)C(=O)N2"
readout_type = "Biochem EGFR % Inhibition (P.167)"
unit_abbreviation = "%"
value_measured = 1.1

[[record]]
entry_smiles = "Cc1c(Br)cc(Br)c2c1C(=Cc1cccnc1)C(=O)N2"
readout_type = "Biochem EGFR % Inhibition (P.167)"
unit_abbreviation = "%"
value_measured = 8.7


What value of Biochem EGFR % Inhibition (P.167) has been recorded for this entry: CNS(=O)(=O)c1ccc2c(c1)C(=Cc1ccccc1F)C(=O)N2
90.9

What value of Biochem EGFR % Inhibition (P.167) has been recorded for this entry: CNS(=O)(=O)c1ccc2c(c1)C(=Cc1ccc(C)cc1)C(=O)N2
−7.9

What value of Biochem EGFR % Inhibition (P.167) has been recorded for this entry: O=C1Nc2ccc(S(=O)(=O)Nc3ccc(C(F)(F)F)cc3)cc2C1=Cc1ccc(Cl)cc1Cl
19.1

What value of Biochem EGFR % Inhibition (P.167) has been recorded for this entry: Cc1ccc(C=C2C(=O)Nc3ccc(I)cc32)cc1
14.9

What value of Biochem EGFR % Inhibition (P.167) has been recorded for this entry: CCOc1ccc(C=C2C(=O)Nc3c(Br)cc(Br)c(C)c32)cc1OC
43.9

What value of Biochem EGFR % Inhibition (P.167) has been recorded for this entry: O=C1Nc2ccc(S(=O)(=O)Nc3ccc(C(F)(F)F)cc3)cc2C1=Cc1ccc(O)c(Br)c1
73.0

What value of Biochem EGFR % Inhibition (P.167) has been recorded for this entry: O=C1Nc2ccc(CCCl)cc2C1=Cc1cc(Cl)cc(Cl)c1O
82.8

What value of Biochem EGFR % Inhibition (P.167) has been recorded for this entry: COc1cc(Br)cc(C=C2C(=O)Nc3c(Br)cc(Br)c(C)c32)c1O
0.3

What value of Biochem EGFR % Inhibition (P.167) has been recorded for this entry: CCN(CC)c1ccc(C=C2C(=O)Nc3c(Br)cc(Br)cc32)c(O)c1
22.6

What value of Biochem EGFR % Inhibition (P.167) has been recorded for this entry: Cc1c(Br)cc(Br)c2c1C(=Cc1ccc([N+](=O)[O-])s1)C(=O)N2
8.6

---

Biological target: Met receptor (EGFR/Met chimeric cells, EMR) (Homo sapiens, UniProt P08581)
Construct: expressed in transfected cells; the other entry of the earlier key: EGFR (P00533, Epidermal growth factor receptor)
Sequence (P08581 with tags, fused parts or gaps): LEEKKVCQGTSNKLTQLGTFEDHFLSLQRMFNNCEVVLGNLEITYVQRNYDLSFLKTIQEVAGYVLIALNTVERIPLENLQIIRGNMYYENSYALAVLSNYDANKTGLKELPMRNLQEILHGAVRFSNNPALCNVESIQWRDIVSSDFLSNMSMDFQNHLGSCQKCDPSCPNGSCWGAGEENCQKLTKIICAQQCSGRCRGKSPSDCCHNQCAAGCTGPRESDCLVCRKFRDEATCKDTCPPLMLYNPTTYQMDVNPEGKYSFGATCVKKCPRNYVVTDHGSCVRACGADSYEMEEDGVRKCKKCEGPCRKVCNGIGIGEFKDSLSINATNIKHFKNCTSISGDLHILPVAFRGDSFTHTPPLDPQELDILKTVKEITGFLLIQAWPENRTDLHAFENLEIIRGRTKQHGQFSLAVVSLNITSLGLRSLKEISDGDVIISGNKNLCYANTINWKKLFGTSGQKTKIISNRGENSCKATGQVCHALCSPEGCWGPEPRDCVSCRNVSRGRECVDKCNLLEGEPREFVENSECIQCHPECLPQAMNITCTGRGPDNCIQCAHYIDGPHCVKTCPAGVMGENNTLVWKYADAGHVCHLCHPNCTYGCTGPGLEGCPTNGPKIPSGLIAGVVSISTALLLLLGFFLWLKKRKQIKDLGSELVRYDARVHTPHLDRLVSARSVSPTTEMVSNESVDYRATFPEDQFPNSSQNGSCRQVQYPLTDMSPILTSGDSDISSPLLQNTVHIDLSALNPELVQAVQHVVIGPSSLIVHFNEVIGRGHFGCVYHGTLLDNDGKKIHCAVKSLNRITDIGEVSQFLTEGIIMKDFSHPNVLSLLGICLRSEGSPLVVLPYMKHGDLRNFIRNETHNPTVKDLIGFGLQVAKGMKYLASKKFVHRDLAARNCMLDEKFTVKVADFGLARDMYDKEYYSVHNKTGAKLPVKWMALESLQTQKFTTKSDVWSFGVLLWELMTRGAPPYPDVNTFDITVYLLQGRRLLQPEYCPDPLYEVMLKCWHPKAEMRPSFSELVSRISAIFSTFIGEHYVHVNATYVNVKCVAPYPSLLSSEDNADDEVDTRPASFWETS
Test: Met Autophosphorylation Assay
Type: biochemical
Documented Met Kinase % Inhibition (P.130) across a set of compounds
# output: bare number, implied unit %

Consider the reported Met Kinase % Inhibition (P.130) for these compounds:
[[record]]
compound = "O=C1Nc2ccc(CCCl)cc2C1=Cc1cc(Cl)cc(Cl)c1O [10734/G03]"
target_of_assay = "Met receptor (EGFR/Met chimeric cells, EMR) (Homo sapiens, UniProt P08581)"
value_measured = 93.4

[[record]]
compound = "Cc1c(Br)cc(Br)c2c1C(=Cc1cccc(C(F)(F)F)c1)C(=O)N2 [10735/H05]"
target_of_assay = "Met receptor (EGFR/Met chimeric cells, EMR) (Homo sapiens, UniProt P08581)"
value_measured = 49.8

[[record]]
compound = "Cc1c(Br)cc(Br)c2c1C(=Cc1cc(C(C)C)c(O)c(C(C)C)c1)C(=O)N2 [10724/H06]"
target_of_assay = "Met receptor (EGFR/Met chimeric cells, EMR) (Homo sapiens, UniProt P08581)"
value_measured = 32.8

[[record]]
compound = "COc1ccc(C=C2C(=O)Nc3c(Br)cc(Br)c(C)c32)cc1 [10726/H11]"
target_of_assay = "Met receptor (EGFR/Met chimeric cells, EMR) (Homo sapiens, UniProt P08581)"
value_measured = 40.8

[[record]]
compound = "Cc1c(Br)cc(Br)c2c1C(=Cc1ccc(-c3ccccc3Cl)o1)C(=O)N2 [10730/H07]"
target_of_assay = "Met receptor (EGFR/Met chimeric cells, EMR) (Homo sapiens, UniProt P08581)"
value_measured = 38.7

[[record]]
compound = "CCOc1cccc(C=C2C(=O)Nc3ccc(S(=O)(=O)NC)cc32)c1O [10734/D02]"
target_of_assay = "Met receptor (EGFR/Met chimeric cells, EMR) (Homo sapiens, UniProt P08581)"
value_measured = 46.0

[[record]]
compound = "O=C1Nc2ccc(I)cc2C1=Cc1cc(F)cc(F)c1 [10735/B04]"
target_of_assay = "Met receptor (EGFR/Met chimeric cells, EMR) (Homo sapiens, UniProt P08581)"
value_measured = 79.0

[[record]]
compound = "Cc1c(Br)ccc2c1C(=Cc1c(F)cccc1F)C(=O)N2 [10735/C08]"
target_of_assay = "Met receptor (EGFR/Met chimeric cells, EMR) (Homo sapiens, UniProt P08581)"
value_measured = 49.8


Moving on to the next compound.
What value of Met Kinase % Inhibition (P.130) has been recorded for this entry: COc1cc(C=C2C(=O)Nc3c(Br)cc(Br)c(C)c32)cc(OC)c1OC [10730/H04]
37.1

---

Documented Flk Kinase % Inhibition (P.110) across a set of compounds
Test system: FLK-1 receptor
Assay: FLK-1 Assay (cellular/catalytic ELISA, VEGF-stimulated phosphotyrosine)
Assay type: cell-based
Set-up: concentration or dose not given beside the values
Conditions: protocol P.110
# output: bare number, implied unit %

Consider the reported Flk Kinase % Inhibition (P.110) for these compounds:
[[record]]
compound = "COc1ccc(C=C2C(=O)Nc3ccc(Br)c(C)c32)cc1O [10738/C04]"
readout_type = "Flk Kinase % Inhibition (P.110)"
unit_abbreviation = "%"
value_measured = 84.2

[[record]]
compound = "O=C1Nc2ccc(S(=O)(=O)N3CCOCC3)cc2C1=Cc1cc(O)c(O)c(O)c1 [10739/F07]"
readout_type = "Flk Kinase % Inhibition (P.110)"
unit_abbreviation = "%"
value_measured = 0.6

[[record]]
compound = "COc1ccccc1C=C1C(=O)Nc2ccc(Br)c(C)c21 [10738/C09]"
readout_type = "Flk Kinase % Inhibition (P.110)"
unit_abbreviation = "%"
value_measured = 4.5

[[record]]
compound = "Cn1cc(C=C2C(=O)Nc3c(Br)cc(Br)cc32)c2ccccc21 [10740/A07]"
readout_type = "Flk Kinase % Inhibition (P.110)"
unit_abbreviation = "%"
value_measured = "−18.3"

[[record]]
compound = "O=C1Nc2ccc(I)cc2C1=Cc1cc(F)ccc1F [10737/B04]"
readout_type = "Flk Kinase % Inhibition (P.110)"
unit_abbreviation = "%"
value_measured = "−8.2"


What value of Flk Kinase % Inhibition (P.110) has been recorded for this entry: Cc1ccc(Oc2cccc(C=C3C(=O)Nc4ccc(S(=O)(=O)N5CCOCC5)cc43)c2)cc1 [10738/F02]
15.0

What value of Flk Kinase % Inhibition (P.110) has been recorded for this entry: Cc1ccc(Oc2cccc(C=C3C(=O)Nc4ccc(S(=O)(=O)Nc5ccc(C(F)(F)F)cc5)cc43)c2)cc1 [10738/E02]
3.6

What value of Flk Kinase % Inhibition (P.110) has been recorded for this entry: COc1ccc(C=C2C(=O)Nc3c(Br)cc(Br)c(C)c32)cc1C [10739/H02]
2.2

What value of Flk Kinase % Inhibition (P.110) has been recorded for this entry: Cc1c(Br)ccc2c1C(=Cc1ccc(C(C)C)cc1)C(=O)N2 [10738/C10]
−2.5

What value of Flk Kinase % Inhibition (P.110) has been recorded for this entry: O=C1Nc2ccc(S(=O)(=O)Nc3ccc(C(F)(F)F)cc3)cc2C1=Cc1cnc2ccccc2c1 [10740/E02]
9.6

What value of Flk Kinase % Inhibition (P.110) has been recorded for this entry: CNS(=O)(=O)c1ccc2c(c1)C(=Cc1cc(O)cc(O)c1)C(=O)N2 [10738/D07]
10.3

What value of Flk Kinase % Inhibition (P.110) has been recorded for this entry: Cc1c(Br)cc(Br)c2c1C(=Cc1cc(Br)cs1)C(=O)N2 [10740/H10]
0.4

---

Target: Met receptor (EGFR/Met chimeric cells, EMR) (Homo sapiens, UniProt P08581)
Construct: expressed in transfected cells; the other entry of the earlier key: EGFR (P00533, Epidermal growth factor receptor)
Assay: Met Autophosphorylation Assay
Format: biochemical
Conditions: protocol P.130
Documented Met Kinase % Inhibition (P.130) across a set of compounds
# output: bare number, implied unit %

[[record]]
entry_smiles = "CN(C)CCCOc1ccc(C=C2C(=O)Nc3ccc(CCCl)cc32)cc1"
unit_abbreviation = "%"
value_measured = 46.1

[[record]]
entry_smiles = "O=C1Nc2ccc(S(=O)(=O)N3CCOCC3)cc2C1=Cc1cnc2ccccc2c1"
unit_abbreviation = "%"
value_measured = 59.4

[[record]]
entry_smiles = "Cc1c(Br)cc(Br)c2c1C(=Cc1cc(O)c(O)c(O)c1)C(=O)N2"
unit_abbreviation = "%"
value_measured = 93.7


Lab request: please report Met Kinase % Inhibition (P.130) under test system Met receptor (EGFR/Met chimeric cells, EMR) (Homo sapiens, UniProt P08581) for O=C1Nc2ccc(I)cc2C1=Cc1cc(O)cc(O)c1
66.7

Lab request: please report Met Kinase % Inhibition (P.130) under test system Met receptor (EGFR/Met chimeric cells, EMR) (Homo sapiens, UniProt P08581) for COc1ccc(C=C2C(=O)Nc3ccc(S(=O)(=O)Nc4ccc(C(F)(F)F)cc4)cc32)cc1O
64.1

Lab request: please report Met Kinase % Inhibition (P.130) under test system Met receptor (EGFR/Met chimeric cells, EMR) (Homo sapiens, UniProt P08581) for O=C1Nc2ccc(CCCl)cc2C1=Cc1ccc(Cl)c(Cl)c1
36.8

Lab request: please report Met Kinase % Inhibition (P.130) under test system Met receptor (EGFR/Met chimeric cells, EMR) (Homo sapiens, UniProt P08581) for COc1ccc(C=C2C(=O)Nc3ccc(CCCl)cc32)cc1O
42.6

Lab request: please report Met Kinase % Inhibition (P.130) under test system Met receptor (EGFR/Met chimeric cells, EMR) (Homo sapiens, UniProt P08581) for O=C1Nc2c(Br)cc(Br)cc2C1=Cc1cc(F)ccc1F
63.5

Lab request: please report Met Kinase % Inhibition (P.130) under test system Met receptor (EGFR/Met chimeric cells, EMR) (Homo sapiens, UniProt P08581) for CC(C)(C)c1ccc(Oc2cccc(C=C3C(=O)Nc4ccc(S(=O)(=O)Nc5ccc(C(F)(F)F)cc5)cc43)c2)cc1
49.3

Lab request: please report Met Kinase % Inhibition (P.130) under test system Met receptor (EGFR/Met chimeric cells, EMR) (Homo sapiens, UniProt P08581) for O=C1Nc2ccc(S(=O)(=O)Nc3ccc(C(F)(F)F)cc3)cc2C1=Cc1cc(O)c(O)c(O)c1
94.0

Lab request: please report Met Kinase % Inhibition (P.130) under test system Met receptor (EGFR/Met chimeric cells, EMR) (Homo sapiens, UniProt P08581) for Cc1ccc(C)c(C=C2C(=O)Nc3c(Br)cc(Br)c(C)c32)c1
51.8

Lab request: please report Met Kinase % Inhibition (P.130) under test system Met receptor (EGFR/Met chimeric cells, EMR) (Homo sapiens, UniProt P08581) for COc1ccc(C=C2C(=O)Nc3ccc(I)cc32)cc1C
68.1

Lab request: please report Met Kinase % Inhibition (P.130) under test system Met receptor (EGFR/Met chimeric cells, EMR) (Homo sapiens, UniProt P08581) for CNS(=O)(=O)c1ccc2c(c1)C(=Cc1cccc(Oc3ccc(C)cc3)c1)C(=O)N2
15.6

Lab request: please report Met Kinase % Inhibition (P.130) under test system Met receptor (EGFR/Met chimeric cells, EMR) (Homo sapiens, UniProt P08581) for Cc1c(Br)cc(Br)c2c1C(=Cc1cccc(F)c1)C(=O)N2
31.0

Lab request: please report Met Kinase % Inhibition (P.130) under test system Met receptor (EGFR/Met chimeric cells, EMR) (Homo sapiens, UniProt P08581) for Cc1c(Br)ccc2c1C(=Cc1cc(O)cc(O)c1)C(=O)N2
51.2

Lab request: please report Met Kinase % Inhibition (P.130) under test system Met receptor (EGFR/Met chimeric cells, EMR) (Homo sapiens, UniProt P08581) for Cn1cc(C=C2C(=O)Nc3c(Br)cc(Br)cc32)c2ccccc21
54.9

Lab request: please report Met Kinase % Inhibition (P.130) under test system Met receptor (EGFR/Met chimeric cells, EMR) (Homo sapiens, UniProt P08581) for Cc1ccc(Oc2cccc(C=C3C(=O)Nc4c(Br)cc(Br)cc43)c2)cc1
10.0

Lab request: please report Met Kinase % Inhibition (P.130) under test system Met receptor (EGFR/Met chimeric cells, EMR) (Homo sapiens, UniProt P08581) for CNS(=O)(=O)c1ccc2c(c1)C(=Cc1ccc(OCCCN(C)C)cc1)C(=O)N2
66.7

Lab request: please report Met Kinase % Inhibition (P.130) under test system Met receptor (EGFR/Met chimeric cells, EMR) (Homo sapiens, UniProt P08581) for Cc1c(Br)ccc2c1C(=Cc1ccc(Cl)c(Cl)c1)C(=O)N2
39.5

Lab request: please report Met Kinase % Inhibition (P.130) under test system Met receptor (EGFR/Met chimeric cells, EMR) (Homo sapiens, UniProt P08581) for O=C1Nc2ccc(CCCl)cc2C1=Cc1cc(Br)cs1
19.4
